- System: P388 leukemia ip, CD2F1 mice, survival T/C
- test_protocol: NCI In Vivo Anticancer Drug Screen. Data for tumor model P388 Leukemia (intraperitoneal) in CD2F1 (CDF1) mice
- experimental_context: endpoint: median survival time; dose: 100.0 mg/kg/injection; schedule: Q04DX002 (ip); vehicle: Klucel (hydroxypropylcellulose) (HPC); higher = longer survival
Toxic doses and inconclusive results are not listed. Peptide text beside a SMILES is read from it. * marks the point of attachment. Trt = c1ccc(C(c2ccccc2)(c2ccccc2)*)cc1; Benzhydryl = c1ccc(C(c2ccccc2)*)cc1; Cbz = O=C(OCc1ccccc1)*
experimental_readout: T/C

Use these answered entries as a reference point.
compound	T/C
O=[N+]([O-])c1ccc(-c2nnn(C3CC3)c2N2CCCCC2)cc1	100 % of control
C/C(C(=O)NC1CC1)=C(\C)c1ccc(Cl)cc1	103 % of control
S=C(S)n1nc(-c2ccccc2)c(N=Nc2ccc(Br)cc2)c1-c1ccccc1	107 % of control
COC(=O)C(Cc1ccccc1)NC(=O)C(Cc1ccccc1)NC(=O)CNC(=O)C(CSC(c1ccccc1)c1ccccc1)NC(=O)C(CSC(c1ccccc1)(c1ccccc1)c1ccccc1)NC(=O)OCc1ccccc1 (stereo not given) (Cbz-C(Trt)C(Benzhydryl)GFF-OMe; configuration not given here)	88 % of control

Req: I would be grateful if you could share the reported T/C for COc1ccc(C2=C(Cl)C(=O)N(c3ccc(Cl)cc3)C(=O)C2(Cl)Cl)cc1 .
Resp: 101 % of control

---

- Tested on: P388 leukemia ip, CD2F1 mice, survival T/C
- test_protocol: NCI In Vivo Anticancer Drug Screen. Data for tumor model P388 Leukemia (intraperitoneal) in CD2F1 (CDF1) mice
- experimental_context: endpoint: median survival time; dose: 7.5 mg/kg/injection; schedule: Q01DX005 (ip); vehicle: Klucel (hydroxypropylcellulose) (HPC); higher = longer survival
Toxic doses and inconclusive results are not listed.
Reported T/C values are given for each entry in this list.

Examples from the recorded data:
molecule	target_system	T/C
CC1(C)[C@H](O)CC[C@]2(C)[C@@H]1CC[C@]13C=C[C@](C)(C1)[C@H](O)C[C@H]32	P388 leukemia ip, CD2F1 mice, survival T/C	91 % of control
C/C(=N/NC(=O)O[C@@H]1C[C@H](C)CC[C@H]1C(C)C)c1cc[c]([Sn]([CH3])([Cl])[c]2ccccc2)cc1 (some centres undefined)	P388 leukemia ip, CD2F1 mice, survival T/C	107 % of control
C=Cn1cc[n+](CC(=O)OC2CCC3C4CCC5=CC(=O)CCC5(C)C4CCC23C)c1 (centres undefined)	P388 leukemia ip, CD2F1 mice, survival T/C	96 % of control

Let us move to another entry and its T/C.
Req: Which T/C reading was recorded for the molecule CCC1=CCCN(Cc2ccccc2)C1C#N (centres undefined) ?
Resp: 106 % of control

---

- System: P388 leukemia ip, CD2F1 mice, survival T/C
- test_protocol: NCI In Vivo Anticancer Drug Screen. Data for tumor model P388 Leukemia (intraperitoneal) in CD2F1 (CDF1) mice
- experimental_context: endpoint: median survival time; dose: 400.0 mg/kg/injection; schedule: Q04DX002 (ip); vehicle: Klucel (hydroxypropylcellulose) (HPC); higher = longer survival
Toxic doses and inconclusive results are not listed. Peptide text beside a SMILES is read from it. * marks the point of attachment. Trt = c1ccc(C(c2ccccc2)(c2ccccc2)*)cc1; Benzhydryl = c1ccc(C(c2ccccc2)*)cc1; Cbz = O=C(OCc1ccccc1)*
experimental_readout: T/C

The examples below pair each entry with its known result.
molecule	experimental_readout	obs_value
c1ccc2c3c([nH]c2c1)CCN1CCN(CCc2ccncc2)CC31 (stereo not given)	T/C	96 % of control
Cc1nc2ccccc2c2c1C(=O)c1ccccc1-2	T/C	89 % of control
COC(=O)C(Cc1ccccc1)NC(=O)C(Cc1ccccc1)NC(=O)CNC(=O)C(CSC(c1ccccc1)c1ccccc1)NC(=O)C(CSC(c1ccccc1)(c1ccccc1)c1ccccc1)NC(=O)OCc1ccccc1 (stereo not given) (Cbz-C(Trt)C(Benzhydryl)GFF-OMe; configuration not given here)	T/C	98 % of control
O=C1c2ccccc2C(=O)c2c(O)c(NCCO)cc(O)c21	T/C	93 % of control

Now for a further molecule.
Req: Look up T/C for this molecule: CC(C)(C)OSc1ccccc1
Resp: 102 % of control

---

- Tested on: P388 leukemia ip, CD2F1 mice, survival T/C
- test_protocol: NCI In Vivo Anticancer Drug Screen. Data for tumor model P388 Leukemia (intraperitoneal) in CD2F1 (CDF1) mice
- experimental_context: endpoint: median survival time; dose: 25.0 mg/kg/injection; schedule: Q01DX009 (ip); vehicle: distilled water + Tween-80; higher = longer survival
Inconclusive results and toxic doses are left out.
We begin with a simple list: items and their reported T/C.

Reference set (5 entries):
compound	T/C
CNC(=O)OCc1c(C)oc(-c2ccc(Cl)c(Cl)c2)c1COC(=O)NC	102 % of control
O=C(Nc1ccccc1)Nc1nncs1	104 % of control
CCC1(O)C(=O)OCc2c1cc(-c1ccc(Cl)cc1)nc2OC (stereo not given)	100 % of control
CC(=O)OCC(Cn1ccnc1[N+](=O)[O-])OC(C)=O (stereo not given)	101 % of control
COc1ccc2nc(-c3ccccn3)ccc2c1	106 % of control

Below: the item to evaluate.
Req: Given the entry CCN(CC)CCCC(C)Nc1cc(C)nc2c1ccc1c2ccc2c(NC(C)CCCN(CC)CC)cc(C)nc21 (stereo not given) , report its measured T/C.
Resp: 111 % of control

---

Measured T/C by item
- Test system: P388 leukemia ip, CD2F1 mice, survival T/C
- test_protocol: NCI In Vivo Anticancer Drug Screen. Data for tumor model P388 Leukemia (intraperitoneal) in CD2F1 (CDF1) mice
- experimental_context: endpoint: median survival time; dose: 400.0 mg/kg/injection; schedule: Q01DX001 (ip); vehicle: Klucel (hydroxypropylcellulose) (HPC); higher = longer survival
Inconclusive results and toxic doses are left out.

These solved cases illustrate the format of a correct answer.
compound	obs_value
COCC1(C)CCCC2(C)C3=C(CC=C(OC)C3)CCC12 (stereo unspecified)	90 % of control
NC(=S)N/N=C/c1c(Br)n(-c2ccccc2)c2ccccc12	91 % of control
OC1CC2(CC3(C1)SCCS3)SCCS2 (stereo unspecified)	106 % of control
Cc1ccc(N2C(=S)N(c3cccc(Cl)c3Cl)C(=O)C(N=Nc3cccc(Cl)c3Cl)C2O)cc1 (stereo unspecified)	97 % of control
CSC1(SC2=NCCN2)SC2(NCCN2)S1	90 % of control

Let us examine a further case.
Req: Requested read-out: T/C. Entry: N#Cc1c(-c2ccccc2)nc2sccn12
Resp: 91 % of control

---

- Test system: P388 leukemia ip, CD2F1 mice, survival T/C
- test_protocol: NCI In Vivo Anticancer Drug Screen. Data for tumor model P388 Leukemia (intraperitoneal) in CD2F1 (CDF1) mice
- experimental_context: endpoint: median survival time; dose: 12.5 mg/kg/injection; schedule: Q01DX005 (ip); vehicle: saline with Tween-80; higher = longer survival
Toxic doses and inconclusive results are not listed.
experimental_readout: T/C

Some solved entries appear below for comparison.
molecule	target_system	T/C
C=CCOC(=O)C12CCC(C)(C)CC1C1=CCC3C4(C)CCC(O)C(C)(CO)C4CCC3(C)C1(C)CC2 (stereo not given)	P388 leukemia ip, CD2F1 mice, survival T/C	92 % of control
Cn1c(COc2ccc(/C=N/Nc3ccnc(N/N=C/c4ccc(OCc5c[n+]6ccccc6n5C)cc4)n3)cc2)c[n+]2ccccc12	P388 leukemia ip, CD2F1 mice, survival T/C	105 % of control
[N-]=[N+]=Nc1ccccc1C(=O)NCCNC(=O)c1ccccc1N=[N+]=[N-]	P388 leukemia ip, CD2F1 mice, survival T/C	91 % of control
COc1ccc2c(c1)C13CCCCC1C(C2)N(C)CC3 (stereo not given)	P388 leukemia ip, CD2F1 mice, survival T/C	94 % of control

Req: Item C[N+](C)=NC1CCC(C(C)(C)C)CC1 (stereo not given) has what recorded T/C?
Resp: 99 % of control

---

- Tested on: P388 leukemia ip, CD2F1 mice, survival T/C
- test_protocol: NCI In Vivo Anticancer Drug Screen. Data for tumor model P388 Leukemia (intraperitoneal) in CD2F1 (CDF1) mice
- experimental_context: endpoint: median survival time; dose: 200.0 mg/kg/injection; schedule: Q04DX003 (ip); vehicle: suspension in saline; higher = longer survival
Inconclusive results and toxic doses are left out.
# T/C per record follows

molecule	T/C
CN1C(c2ccccc2)C2CSCC(C2O)C1c1ccccc1 (centres undefined)	100 % of control
COc1ccc(C2C3CCCC(C3O)C(c3ccc(OC)cc3)N2C)cc1 (centres undefined)	104 % of control
Cc1c2cc[n+](CCN3CCCCC3)cc2c(C)c2c1[nH]c1ccc(O)cc12	98 % of control

Req: Query (molecule): N#CNC1=NC(c2ccccc2O)CC(=O)N1 (centres undefined) ; field requested: T/C
Resp: 105 % of control
